molecular target: rSTING CTD (residues 155–341) (Rattus norvegicus); construct: rSTING (residues 155–341); His tag (TEV protease-cleavable) (N); made in house; host or cells: Escherichia coli BL21 (DE3); test: ITC binding to rSTING-CTD; details: ITC, 25 °C, WT rSTING-CTD (T230)
Sequence (F1M391 155-341): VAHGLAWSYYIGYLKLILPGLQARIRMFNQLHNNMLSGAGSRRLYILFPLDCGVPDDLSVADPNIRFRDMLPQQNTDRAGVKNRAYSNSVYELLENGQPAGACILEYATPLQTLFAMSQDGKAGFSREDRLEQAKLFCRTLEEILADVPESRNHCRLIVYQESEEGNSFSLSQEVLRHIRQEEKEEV
Endpoint label: Kd (nM)
Give bare numbers, in nM.

Q: Fill in the blank: the reported Kd of Nc1nc2c(ncn2[C@@H]2O[C@@H]3COP(=O)(O)O[C@H]4[C@@H](O)[C@H](n5cnc6c(N)ncnc65)O[C@@H]4COP(=O)(O)O[C@H]3[C@H]2O)c(=O)[nH]1 is ____.
Result: 550
